Reference source: ChEMBL document CHEMBL1909046

- test-protocol: DRUGMATRIX: Atrial Natriuretic Factor (ANF) radioligand binding (ligand: [125I] ANF (rat))
- Type: cell membranes, Cavia porcellus, Dunkin-Hartley, Adrenal gland, Membrane
- assay-setup: Not Active = under 50% inhibition at 10 µM
outcome-measure: IC50

The examples below pair each entry with its known result.
| compound | IC50 |
| --- | --- |
| CN(C)[C@@H]1C(O)=C(C(N)=O)C(=O)[C@@]2(O)C(O)=C3C(=O)c4c(O)ccc(Cl)c4[C@@](C)(O)[C@H]3C[C@@H]12 | Not Active |
| CCC1(CCC(C)C)C(=O)NC(=O)NC1=O | Not Active |
| Cc1nnc2n1-c1ccc(Cl)cc1C(c1ccccc1)=NC2 | Not Active |
| COc1cc2nc(N3CCN(C(=O)c4ccco4)CC3)nc(N)c2cc1OC | Not Active |
| CC(C)NCC(O)c1ccc(O)c(O)c1 (centres undefined) | Not Active |

Exam item: Provide only the value of recorded IC50 for CN1[C@@H]2CC[C@H]1C[C@@H](OC(=O)C(CO)c1ccccc1)C2 (some centres undefined)
Marked response: Not Active

Exam item: Provide only the value of recorded IC50 for Cc1c(C)c2c(c(C)c1O)CCC(C)(CN1CCN(c3cc(N4CCCC4)nc(N4CCCC4)n3)CC1)O2 (centres undefined)
Marked response: Not Active

Exam item: Provide only the value of recorded IC50 for "Nc1ccn([C@@H]2O[C@H](CO)[C@@H](O)C2(F)F)c(=O)n1"
Marked response: Not Active

Exam item: Provide only the value of recorded IC50 for "O=C(O)c1cccnc1Nc1cccc(C(F)(F)F)c1"
Marked response: Not Active
